Cited source: the supplement of paper PMC9512659

tested on: Mycobacterium tuberculosis Erdman (pMV306hsp+LuxG13); assay: GRinf, normalised growth-rate inhibition at infinite dose (GR value (unitless, negative = killing)); higher = less potent; settings: growth medium: cholesterol 0.2 mM (cholesterol-high); time point: terminal time point
REPORTED_PROPERTY: GRinf

Answered examples (3):
O=[N+]([O-])c1cn2c(n1)OC[C@@H](OCc1ccc(OC(F)(F)F)cc1)C2 [pretomanid] + CC(=O)NC[C@H]1CN(c2ccc(N3CCSCC3)c(F)c2)C(=O)O1 = -0.326
COc1nc2ccc(Br)cc2cc1[C@@H](c1ccccc1)[C@@](O)(CCN(C)C)c1cccc2ccccc12 [bedaquiline] + CC(C)=CCC/C(C)=C/CNCCNC1C2CC3CC(C2)CC1C3 [SQ109] = -0.779
CO[C@H]1/C=C/O[C@@]2(C)Oc3c(C)c(O)c4c(O)c(c(/C=N/N5CCN(C)CC5)c(O)c4c3C2=O)NC(=O)/C(C)=C\C=C\[C@H](C)[C@H](O)[C@@H](C)[C@@H](O)[C@@H](C)[C@H](OC(C)=O)[C@@H]1C [rifampicin] + CC(C)=CCC/C(C)=C/CNCCNC1C2CC3CC(C2)CC1C3 [SQ109] = -0.83

Let us examine a further case.
Prompt line: For the compound COc1c(N2C[C@@H]3CCCN[C@@H]3C2)c(F)cc2c(=O)c(C(=O)O)cn(C3CC3)c12 [moxifloxacin] + CC(=O)NC[C@H]1CN(c2ccc(N3CCSCC3)c(F)c2)C(=O)O1 , give its measured GRinf value.
Response line: -0.872
